Provenance of the data: patent US20250073184A1

test system: TNFa; assay: TNFa secretion assay in human PBMCs (LPS, ELISA); format: cell-based; conditions: PBMC; human PBMCs, LPS 100 ng/mL 6 hr; read-out: Inhibitory Activity EC50, TNF
pEC50: −log10 of the molar value.
ATTRIBUTE_MEASURED: pEC50

Some entries whose results are on file:
1) CCCCCC1=C(NC)C(=O)C(C/C=C(\C)CCC=C(C)C)=C(O)C1=O [Formula XLI]	< 5.00
2) CCCCCc1cc(OC(C)=O)c(C/C=C(\C)CCC=C(C)C)c(O)c1OC(C)=O [Formula XLIII]	5.06

Okay, now this compound:
Report pEC50 for CCCCCc1cc(OC)c(C/C=C(\C)CCC=C(C)C)c(O)c1OC [Formula XLII] please.
< 5.00

----------
test system: PC3 prostate adenocarcenoma cell line; test: PC3 cell line toxicity (Cell titer Glo viability); type: cell-based; conditions: Homo sapiens, PC-3; PC3, 72 h
pIC50: −log10 of the molar value.
ATTRIBUTE_MEASURED: pIC50

Report pIC50 for CN[C@@H]1C[C@H]2O[C@@](C)([C@@H]1OC)n1c3ccccc3c3c4c(c5c6ccccc6n2c5c31)C(=O)NC4 [Staurosporine, staurosporine, reference compound] please.
~8.40

----------
Biological target: Recombinant human ALOX15 (Arachidonate 15-Lipoxygenase) (Homo sapiens, UniProt P16050)
Construct: full length encompassing amino acids 2-662(end); purchased BPS Biosciences 50220
Sequence (P16050 2-662): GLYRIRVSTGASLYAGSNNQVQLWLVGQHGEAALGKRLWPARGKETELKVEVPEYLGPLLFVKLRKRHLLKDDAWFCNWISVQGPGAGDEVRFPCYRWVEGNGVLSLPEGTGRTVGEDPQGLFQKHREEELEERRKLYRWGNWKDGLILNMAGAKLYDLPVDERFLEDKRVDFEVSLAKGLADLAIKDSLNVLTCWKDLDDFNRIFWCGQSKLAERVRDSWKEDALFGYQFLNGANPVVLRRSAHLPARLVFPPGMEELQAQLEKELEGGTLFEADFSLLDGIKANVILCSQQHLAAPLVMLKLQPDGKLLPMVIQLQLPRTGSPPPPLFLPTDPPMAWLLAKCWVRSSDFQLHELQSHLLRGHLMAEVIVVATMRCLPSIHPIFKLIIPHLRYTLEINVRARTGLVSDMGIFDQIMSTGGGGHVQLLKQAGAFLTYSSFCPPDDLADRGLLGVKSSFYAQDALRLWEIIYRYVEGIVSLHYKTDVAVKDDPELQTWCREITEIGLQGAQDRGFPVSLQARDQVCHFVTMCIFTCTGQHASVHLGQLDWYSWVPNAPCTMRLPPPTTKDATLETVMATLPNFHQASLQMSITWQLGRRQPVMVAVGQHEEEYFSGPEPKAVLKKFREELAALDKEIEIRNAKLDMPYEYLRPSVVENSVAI
Assay: Biochemical LOX-15 assay
# Lookup of reported pEC50 keyed by entry
pEC50 field: float, defined as -log10 of concentration (mol/L).

Some entries whose results are on file:
1) CCCCCC1=C(NC)C(=O)C(C/C=C(\C)CCC=C(C)C)=C(O)C1=O	4.54
2) CCCCCc1cc(OC)c(C/C=C(\C)CCC=C(C)C)c(O)c1OC	4.74

Okay, now this compound:
Report pEC50 for `CCCCCc1cc(OC(C)=O)c(C/C=C(\C)CCC=C(C)C)c(O)c1OC(C)=O` please.
5.08
